assay: Toxicokinetics of formula (II) and methotrexate after individual and concomitant administration to Beagle dogs; assay type: in vivo; conditions: male, Beagle, dog, plasma, po, 10 mg/kg, Group 4 (+MTX), formula (II) 10 mg/kg, week 13, male Beagle dogs, mean

COMPOUND: COc1cccc(-c2ccc(NC(=O)C3=C(C(=O)O)CCC3)c(F)c2)c1
half-life, h: 6.3

---

test: Toxicokinetics of formula (II) and methotrexate after individual and concomitant administration to Beagle dogs; format: in vivo; conditions: male, Beagle, dog, plasma, po, 25 mg/kg, Group 5 (+MTX), formula (II) 25 mg/kg, day 1, male Beagle dogs, mean

COMPOUND: COc1cccc(-c2ccc(NC(=O)C3=C(C(=O)O)CCC3)c(F)c2)c1
Cmax / µg/mL: 60
